Origin of the recorded values: ChEMBL document CHEMBL4765345

TEST_TARGET: Histone deacetylase 1 (Homo sapiens, UniProt Q13547)
Sequence (Q13547 whole entry): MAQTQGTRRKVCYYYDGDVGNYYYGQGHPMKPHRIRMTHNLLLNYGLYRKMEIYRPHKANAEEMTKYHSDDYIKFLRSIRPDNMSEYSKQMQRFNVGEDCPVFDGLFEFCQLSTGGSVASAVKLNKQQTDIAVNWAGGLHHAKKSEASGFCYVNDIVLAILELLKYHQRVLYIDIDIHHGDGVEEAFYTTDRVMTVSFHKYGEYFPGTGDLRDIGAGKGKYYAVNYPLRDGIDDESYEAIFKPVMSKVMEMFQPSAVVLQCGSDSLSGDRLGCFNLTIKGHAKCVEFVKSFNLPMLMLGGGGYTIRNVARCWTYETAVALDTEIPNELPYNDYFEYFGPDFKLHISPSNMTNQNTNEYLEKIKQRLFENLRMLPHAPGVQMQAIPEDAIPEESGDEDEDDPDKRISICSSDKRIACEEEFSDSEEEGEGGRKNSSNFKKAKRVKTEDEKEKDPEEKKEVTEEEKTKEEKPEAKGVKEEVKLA
ASSAY_NAME: Inhibition of recombinant human HDAC1 using Z-(Ac)Lys-AMC as substrate after 90 mins by fluorescence based micro plate assay
Here, each record is paired with measured IC50 data.
QUANTITY_NAME: IC50

>  <STRUCTURE>
COc1ccc(C(=O)NO)cc1C(=O)Nc1ccc2c(c1)cc(C)c(=O)n2C

>  <TEST_TARGET>
Histone deacetylase 1 (Homo sapiens, UniProt Q13547)

>  <TEST_VALUE>
6900 nM

$$$$
>  <STRUCTURE>
Cc1cc2cc(NS(=O)(=O)c3ccc(C(=O)NO)cc3)ccc2n(C)c1=O

>  <TEST_TARGET>
Histone deacetylase 1 (Homo sapiens, UniProt Q13547)

>  <TEST_VALUE>
797 nM

$$$$
>  <STRUCTURE>
COc1ccc(C(=O)NO)cc1NCc1ccc(OCCCCC(=O)Nc2ccc3c(c2)cc(C)c(=O)n3C)cc1

>  <TEST_TARGET>
Histone deacetylase 1 (Homo sapiens, UniProt Q13547)

>  <TEST_VALUE>
5200 nM

$$$$
>  <STRUCTURE>
Cc1cc2cc(NS(=O)(=O)Cc3ccc(C(=O)NO)cc3)ccc2n(C)c1=O

>  <TEST_TARGET>
Histone deacetylase 1 (Homo sapiens, UniProt Q13547)

>  <TEST_VALUE>
545 nM

$$$$

* * *

TEST_TARGET: Protein deacetylase HDAC6 (Homo sapiens, UniProt Q9UBN7)
Sequence (Q9UBN7 whole entry): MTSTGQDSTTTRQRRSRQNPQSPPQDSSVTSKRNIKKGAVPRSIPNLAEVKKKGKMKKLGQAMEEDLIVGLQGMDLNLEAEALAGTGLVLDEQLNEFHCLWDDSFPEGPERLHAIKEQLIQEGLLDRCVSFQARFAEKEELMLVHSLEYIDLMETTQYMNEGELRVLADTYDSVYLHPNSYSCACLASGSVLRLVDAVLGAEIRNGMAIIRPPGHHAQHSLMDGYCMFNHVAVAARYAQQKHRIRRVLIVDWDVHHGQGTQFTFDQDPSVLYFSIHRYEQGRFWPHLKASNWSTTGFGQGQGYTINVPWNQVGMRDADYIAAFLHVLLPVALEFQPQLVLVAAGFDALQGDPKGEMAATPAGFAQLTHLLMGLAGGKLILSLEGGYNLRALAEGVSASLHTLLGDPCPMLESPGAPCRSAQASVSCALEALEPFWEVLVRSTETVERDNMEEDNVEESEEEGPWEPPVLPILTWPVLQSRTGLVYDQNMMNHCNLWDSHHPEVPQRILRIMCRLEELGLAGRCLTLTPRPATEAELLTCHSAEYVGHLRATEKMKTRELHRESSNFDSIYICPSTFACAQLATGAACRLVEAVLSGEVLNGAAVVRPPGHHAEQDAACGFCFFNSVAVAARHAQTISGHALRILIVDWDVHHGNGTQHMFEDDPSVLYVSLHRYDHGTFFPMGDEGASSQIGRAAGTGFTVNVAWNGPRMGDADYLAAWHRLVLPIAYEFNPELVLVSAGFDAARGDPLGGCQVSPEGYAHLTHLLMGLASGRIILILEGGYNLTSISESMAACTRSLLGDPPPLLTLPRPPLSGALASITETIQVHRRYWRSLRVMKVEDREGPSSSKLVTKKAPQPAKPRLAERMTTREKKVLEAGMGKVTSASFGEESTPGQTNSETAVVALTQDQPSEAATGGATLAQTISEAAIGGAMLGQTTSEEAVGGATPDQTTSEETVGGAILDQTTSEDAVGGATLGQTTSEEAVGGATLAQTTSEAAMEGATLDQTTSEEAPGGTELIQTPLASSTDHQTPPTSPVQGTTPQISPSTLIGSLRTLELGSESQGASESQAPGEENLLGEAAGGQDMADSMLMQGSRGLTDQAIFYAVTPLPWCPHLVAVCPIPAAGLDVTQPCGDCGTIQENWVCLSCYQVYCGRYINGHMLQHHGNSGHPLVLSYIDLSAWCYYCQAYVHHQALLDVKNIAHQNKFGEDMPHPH
ASSAY_NAME: Inhibition of recombinant human HDAC6 using Z-(Ac)Lys-AMC as substrate after 90 mins by fluorescence based micro plate assay
pIC50: −log10 of the molar value.

>  <STRUCTURE>
Cc1cc2cc(NS(=O)(=O)c3ccc(C(=O)NO)cc3)ccc2n(C)c1=O

>  <pIC50>
6.46

$$$$
>  <STRUCTURE>
COc1ccc(C(=O)NO)cc1C(=O)Nc1ccc2c(c1)cc(C)c(=O)n2C

>  <pIC50>
6.15

$$$$
>  <STRUCTURE>
Cc1cc2cc(NS(=O)(=O)Cc3ccc(C(=O)NO)cc3)ccc2n(C)c1=O

>  <pIC50>
6.82

$$$$

* * *

This section presents compounds with their documented inhibition values.
TEST_TARGET: Histone deacetylase 1 (Homo sapiens, UniProt Q13547)
ASSAY_NAME: Inhibition of recombinant human HDAC1 at 1 uM using Z-(Ac)Lys-AMC as substrate after 90 mins by fluorescence based micro plate assay
QUANTITY_NAME: inhibition (%)

>  <STRUCTURE>
COc1ccc(C(=O)NO)cc1S(=O)(=O)Nc1ccc2c(c1)cc(C)c(=O)n2C

>  <TEST_VALUE>
6

$$$$
>  <STRUCTURE>
COc1ccc(C(=O)NO)cc1CS(=O)(=O)Nc1ccc2c(c1)cc(C)c(=O)n2C

>  <TEST_VALUE>
4

$$$$
>  <STRUCTURE>
COc1cc(C(=O)NO)ccc1CS(=O)(=O)Nc1ccc2c(c1)cc(C)c(=O)n2C

>  <TEST_VALUE>
11

$$$$
>  <STRUCTURE>
Cc1cc2cc(NS(=O)(=O)c3cc(C(=O)NO)ccc3Cl)ccc2n(C)c1=O

>  <TEST_VALUE>
13

$$$$
>  <STRUCTURE>
Cc1cc2cc(NS(=O)(=O)Cc3cccc(C(=O)NO)c3)ccc2n(C)c1=O

>  <TEST_VALUE>
2

$$$$
